The reader will find reported pKi values listed item by item below.
biological target: Recombinant IKKα (Homo sapiens, UniProt O15111); construct: purchased Millipore, Dundee, UK; assay: DELFIA IKKα kinase assay (apparent Ki, Cheng-Prusoff); format: biochemical; conditions: non-italicised figure: DELFIA assay
pKi is defined as minus the log10 of a concentration measured in mol/L.

// below: answered compounds
{"columns": ["Smiles record", "System tested", "pKi"],
 "data": [
  ["CC(C)(C)c1ccc(NC(=O)Nc2cc(-c3ccc4[nH]nc(N)c4c3)ccn2)cc1", "Recombinant IKKα (Homo sapiens, UniProt O15111)", 7.12],
  ["Nc1cc(-c2cc(-c3cccc(C(F)(F)F)c3)c3[nH]nc(N)c3c2)ccn1", "Recombinant IKKα (Homo sapiens, UniProt O15111)", 6.79],
  ["COC(=O)Nc1cc(-c2cc(C#CC(C)(C)N)c3[nH]nc(N)c3c2)ccn1", "Recombinant IKKα (Homo sapiens, UniProt O15111)", 7.70],
  ["COC(=O)Nc1cc(-c2cc(C#CC(C)(C)O)c3[nH]nc(N)c3c2)ccn1", "Recombinant IKKα (Homo sapiens, UniProt O15111)", 8.30],
  ["Nc1nccc(-c2ccc3[nH]nc(N)c3c2)c1C1CC1", "Recombinant IKKα (Homo sapiens, UniProt O15111)", 5.75],
  ["Nc1cc(-c2cc(-c3cccs3)c3[nH]nc(N)c3c2)ccn1", "Recombinant IKKα (Homo sapiens, UniProt O15111)", 7.68],
  ["Nc1cc(-c2cc(-c3ccc(O)cc3)c3[nH]nc(N)c3c2)ccn1", "Recombinant IKKα (Homo sapiens, UniProt O15111)", 7.77],
  ["Nc1cc(-c2cc(-c3cccc(C=O)c3)c3[nH]nc(N)c3c2)ccn1", "Recombinant IKKα (Homo sapiens, UniProt O15111)", 7.92],
  ["Nc1nccc(-c2ccc3[nH]nc(N)c3c2)c1C#CCCN1CCCCC1", "Recombinant IKKα (Homo sapiens, UniProt O15111)", 7.49],
  ["CC(C)(C)C#Cc1cc(-c2cc(N)nc(N)c2)cc2c(N)n[nH]c12", "Recombinant IKKα (Homo sapiens, UniProt O15111)", 6.03]
]}

Now for another entry.
What measured pKi is associated with Nc1cc(-c2cc(-c3cccc(F)c3)c3[nH]nc(N)c3c2)ccn1 on Recombinant IKKα (Homo sapiens, UniProt O15111)?
7.40

* * *

The reader will find reported pIC50 values listed item by item below.
Biological target: CHUK (IKK alpha) (Homo sapiens)
Construct: purchased Life Technologies (assay performed by the vendor)
Sequence (O15111 1-745): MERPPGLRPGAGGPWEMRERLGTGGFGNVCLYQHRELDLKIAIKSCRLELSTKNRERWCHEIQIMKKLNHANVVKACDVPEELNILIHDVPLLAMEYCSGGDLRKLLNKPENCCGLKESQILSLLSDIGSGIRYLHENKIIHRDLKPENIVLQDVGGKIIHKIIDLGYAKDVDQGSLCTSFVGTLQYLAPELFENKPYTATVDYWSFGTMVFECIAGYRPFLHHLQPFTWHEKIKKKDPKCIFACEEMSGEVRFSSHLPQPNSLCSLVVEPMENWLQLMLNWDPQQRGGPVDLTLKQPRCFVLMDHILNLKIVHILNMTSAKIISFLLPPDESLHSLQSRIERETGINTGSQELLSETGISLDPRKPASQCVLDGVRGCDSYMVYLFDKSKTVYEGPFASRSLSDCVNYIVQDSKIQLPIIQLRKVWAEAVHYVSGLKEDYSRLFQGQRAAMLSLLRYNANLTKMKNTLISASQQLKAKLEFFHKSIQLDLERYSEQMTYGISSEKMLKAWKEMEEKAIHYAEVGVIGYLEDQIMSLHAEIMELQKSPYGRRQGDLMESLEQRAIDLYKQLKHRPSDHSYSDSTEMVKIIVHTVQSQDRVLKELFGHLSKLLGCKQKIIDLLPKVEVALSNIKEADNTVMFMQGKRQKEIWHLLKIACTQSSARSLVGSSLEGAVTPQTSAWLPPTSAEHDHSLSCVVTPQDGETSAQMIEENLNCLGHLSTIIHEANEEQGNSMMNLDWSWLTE
Experiment: Adapta IKKα assay (TR-FRET ADP formation, Life Technologies)
Assay type: biochemical
Conditions: Adapta assay
pIC50 is defined as minus the log10 of a concentration measured in mol/L.

// below: answered molecules
{"columns": ["Smiles record", "pIC50"],
 "data": [
  ["Nc1nccc(-c2ccc3[nH]nc(N)c3c2)c1C#CC1(O)CCCCCC1", 8.15],
  ["Nc1nccc(-c2ccc3[nH]nc(N)c3c2)c1C#CCO", 9.00],
  ["Nc1nccc(-c2ccc3[nH]nc(N)c3c2)c1C#CC1CCCC1", 8.70],
  ["Nc1nccc(-c2ccc3[nH]nc(N)c3c2)c1C#CCCCN1CCOCC1", 7.68],
  ["CC(C)(C)C#Cc1c(-c2ccc3[nH]nc(N)c3c2)ccnc1N", 9.00]
]}

Consider the molecule shown here: Nc1nccc(-c2ccc3[nH]nc(N)c3c2)c1C#CC1CCCCC1 What is its recorded pIC50?
8.52

Consider the molecule shown here: Nc1nccc(-c2ccc3[nH]nc(N)c3c2)c1C#CCCC(=O)N1CCOCC1 What is its recorded pIC50?
8.52

Consider the molecule shown here: Nc1nccc(-c2ccc3[nH]nc(N)c3c2)c1C#CCCCN1CCCCC1 What is its recorded pIC50?
7.92

Consider the molecule shown here: Nc1cc(-c2cc(-c3ccoc3)c3[nH]nc(N)c3c2)ccn1 What is its recorded pIC50?
8.30

Consider the molecule shown here: CC(C)(C)C#Cc1cc(-c2ccnc(N)c2)cc2c(N)n[nH]c12 What is its recorded pIC50?
7.96

Consider the molecule shown here: Nc1nccc(-c2ccc3[nH]nc(N)c3c2)c1C#CC1(O)CCCCC1 What is its recorded pIC50?
8.52
